Where do the numbers come from? From ChEMBL document CHEMBL1201862.

Test system: SNB-75
assay.comment: NCI tumour cell line growth inhibition, 48 h
Active and inactive are the calls of the source. Cut-off read from the data, not from the text of the source: active = GI50 up to about 1.1 µM and inactive = higher.
measured.parameter: GI50

Before answering, review these 10 worked examples.
compound	GI50
Cc1cnoc1NS(=O)(=O)c1ccc(Nc2nnc(/C=C/c3c(O)ccc4ccccc34)c(=O)n2N)cc1	20.8 µM (inactive)
O=C1C(c2ccccc2)=[N+]([O-])c2ccccc21	17 µM (inactive)
COC(=O)C(NC(=O)c1ccccc1)C(c1c(O)cc(O)cc1O)P(=O)(OC)OC (stereo not drawn)	> 100 µM (inactive)
COC1=Nc2ccccc2S(=O)(=O)C=C1	2.31 µM (inactive)
N#CC12C3C4CC5C6C4C1C6C(O)(C53)N2Cc1ccccc1 (stereo not drawn)	> 100 µM (inactive)
CC1=C[C@@H]2[C@@H](CC(CO)=C[C@H]3[C@@H]4C(C)(C)[C@]4(OCC(C)C)[C@H](OCC(C)C)[C@@H](C)[C@]23O)C1=O	2.97 µM (inactive)
Cc1cn([C@H]2C[C@H](O)[C@@H](CO)O2)c(=O)nc1N	> 100 µM (inactive)
O=c1ssc(Cl)c1Nc1c(Cl)ssc1=O	25.9 µM (inactive)
CN1CCN(c2nc(N)c(Br)c(Cl)n2)CC1	58.3 µM (inactive)
CC1(F)C=CC(=O)C=C1	> 100 µM (inactive)

Query O=S(O)CCCCCSSSCCCCCS(=O)O yields GI50 of 24.6 µM (inactive)

# GI50 of O=C(/C=C1/Nc2ccc([N+](=O)[O-])cc2N/C1=C/C(=O)c1ccccc1)c1ccccc1 = 16.9 µM (inactive)

The recorded GI50 for entry CNC(=O)OCc1c(COC(=O)NC)c(C)n(-c2ccc(Br)cc2)c1C equals 4.17 µM (inactive)

###

Reported GI50 values are given for each entry in this list.
Test system: UACC-62
assay.comment: NCI tumour cell line growth inhibition, 48 h
Calls of active or inactive are those of the source. No stated cut-off is given here; in the data, active = GI50 up to about 1.1 µM and inactive = higher.

compound	GI50
COC(=O)CCC(=O)NC1=C(Nc2ccc(OC)cc2)C(=O)c2ccccc2C1=O	3.16 µM (inactive)
Cc1cc(C)c2c(=O)n(CC(O)CN3CCN(CCOCCO)CC3)sc2n1 (stereo unspecified)	18.7 µM (inactive)
c1cc(-c2ccc(Oc3ccc(-c4ccncc4)cc3)cc2)ccn1	7.18 µM (inactive)
O=C(CP(=O)(c1ccccc1)c1ccccc1)c1cccc(C(=O)CP(=O)(c2ccccc2)c2ccccc2)c1	> 100 µM (inactive)
CCCCNC(=S)Nc1nc(C(=O)NNC(=S)NC2CCCCC2)cs1	> 100 µM (inactive)

Noted for COC(=O)CCC(C)[C@H]1CCC2C3CC[C@@H]4CC5(CC[C@]4(C)C3C[C@H](OC(C)=O)[C@@]21C)OOC1(CCCCC1)OO5 (stereo partly specified) : its GI50 reads > 100 µM (inactive)

###

Test system: CAKI-1
assay.comment: NCI tumour cell line growth inhibition, 48 h
Activity calls are given as the source filed them. No stated cut-off is given here; in the data, active = GI50 up to about 1.1 µM and inactive = higher.
Please answer using one outcome listed in active, inactive

molecule	label.value
Nc1ccc(Cc2c(N)[nH]c(=O)[nH]c2=O)cc1	inactive

(Q) I would be grateful if you could indicate the recorded call for O=[N+]([O-])/C(C(Cl)=C(Cl)Cl)=C1\NCCS1 .
(A) inactive

(Q) Short answer needed: outcome of this test for Cc1nc2cc(N)c(F)cc2[nH]1 ?
(A) inactive

(Q) Just curious, what result did C=C1C[C@@H]2O[C@H]3[C@H]4[C@@H](C[C@@H](C)[C@@H](OC(C)=O)[C@H]42)[C@@H](C)CO[C@@]3(C)[C@H](OC(C)=O)C[C@H]1O get here?
(A) inactive

(Q) Record request — test call for O=C(O)/C=C/C=C/c1ccc2c(c1)OCO2
(A) inactive

(Q) Dear all, I need the recorded test outcome for O=C(Nc1nc2ncn(CCO)c2c(=S)[nH]1)c1ccccc1 , thank you.
(A) inactive

(Q) Which outcome was assigned to COC(=O)C(NC(=O)c1ccccc1)C(c1c(O)cc(O)cc1O)P(=O)(OC)OC (stereo not given) in this test?
(A) inactive

(Q) I would be grateful if you could indicate the recorded call for O=c1cc(N2CCNCC2)nc2ccccn12 .
(A) inactive

(Q) Please let me know the test result on file for C=C(CCC(=O)N(CCc1c[nH]c2ccccc12)C(=O)c1ccccc1CSCC)C(=O)OC .
(A) inactive

(Q) Tell me the assay call for CSC1=C(C#N)C(=O)N(c2ccc(Cl)cc2)C(=O)C1C#N (stereo not given) please.
(A) inactive

(Q) What call does the record list for Cc1ccccc1Cn1nc2ccccc2cc1=O ?
(A) inactive

(Q) In this assay, the call recorded for COc1ccc2c(c1)[nH]c1c3ccc(OC)cc3oc(=O)c21 was what?
(A) inactive

###

Quick reference for GI50 among some compounds
System: A549
assay.comment: NCI tumour cell line growth inhibition, 48 h
The source made the active and inactive calls. No stated cut-off is given here; in the data, active = GI50 up to about 1.1 µM and inactive = higher.

# example entries with known answers
compound	GI50
CN(CCN1CCCC1)C1CCc2cc(Cl)c(Cl)cc2C1 (configuration not stated)	16.6 µM (inactive)
COc1ccc(OC)c(-c2nc(O)c3ccccc3n2)c1	> 100 µM (inactive)
COC(=O)CCC(=O)NC1=C(Nc2ccc(OC)cc2)C(=O)c2ccccc2C1=O	14 µM (inactive)
CN(CCc1ccccn1)c1nc(=[N+](C)C)ss1	35.3 µM (inactive)
O=C1C(c2ccccc2)=[N+]([O-])c2ccccc21	19.9 µM (inactive)
COc1ccc(/C=C2\CN(C)C/C(=C\c3ccc(OC)cc3)C2=O)cc1	> 100 µM (inactive)
COC(=O)C1=C(O)C(C(=O)OC)[C@]2(O)[C@H](C(=O)OC)[C@H]1C[C@@H](c1c(Cl)cccc1Cl)[C@H]2C(=O)OC (some centres not stated)	2.23 µM (inactive)
NS(=O)(=O)c1nc(S(=O)(=O)O)c2[nH]cnc2n1	> 100 µM (inactive)
Cn1c(C2CCCc3c2c2ccccc2n3C)cc2ccccc21 (configuration not stated)	128 µM (inactive)
CC1(F)C=CC(=O)C=C1	> 100 µM (inactive)

Just so you know, measured GI50 for Oc1c(C(Nc2cccc3cccnc23)c2ccccc2)ccc2cccnc12 (configuration not stated) came out at 6.04 µM (inactive)

// GI50 value for COc1ccc2nc(-c3ccc(N)cc3)sc2c1 : 68.1 µM (inactive)

###

Tested on: SK-MEL-28
assay.comment: NCI tumour cell line growth inhibition, 48 h
Activity calls are given as the source filed them. No stated cut-off is given here; in the data, active = GI50 up to about 1.1 µM and inactive = higher.
measured.parameter: GI50

// worked examples, GI50 included
compound	GI50
COc1ccc(CNc2nc3ccc(C(F)(F)F)cc3nc2-c2ccccc2)cc1OC	> 100 µM (inactive)
CCOC(=O)N1c2ccccc2C(C)=CC(C)C1C (stereo not drawn)	35.9 µM (inactive)

Please look at the following compound next.
SK-MEL-28 GI50 of [O-]c1c2c(nn1-c1ccccc1)c1ccccc1c[n+]2Cc1ccccc1 is > 100 µM (inactive)

###

System: ACHN
assay.comment: NCI tumour cell line growth inhibition, 48 h
Activity calls are given as the source filed them. No stated cut-off is given here; in the data, active = GI50 up to about 1.1 µM and inactive = higher.
// allowed return values: active, inactive

compound	label.value
CCOC(=O)/C(C#N)=C/c1coc2cc(C)cc(C)c2c1=O	inactive
N=C(N)Cn1cnc2ccccc21	inactive
CC1CCC2(NC1)OC1CC3C4CC=C5CC(OC6OC(CO)C(OC7OC(C)C(O)C(O)C7O)C(O)C6OC6OC(C)C(O)C(O)C6O)CCC5(C)C4CCC3(C)C1C2C (stereo not drawn)	inactive

(Q) How did this test come out for Nc1nc(=S)n(-c2ccc(Cl)cc2)c2nc3ccccc3cc12 ?
(A) inactive

(Q) Which outcome was assigned to N=C(N)N/N=C/c1c(-c2ccc([N+](=O)[O-])cc2)nc2n1CCS2 in this test?
(A) inactive

(Q) // param item: CNC(=O)OCc1c(COC(=O)NC)c(C)n(-c2ccc(Br)cc2)c1C ; yields the recorded call
(A) inactive

###

Test system: NCI-H23
assay.comment: NCI tumour cell line growth inhibition, 48 h
Active and inactive are the calls of the source. No stated cut-off is given here; in the data, active = GI50 up to about 1.1 µM and inactive = higher.
measured.parameter: GI50

molecule	target.of.assay	GI50
O=c1[nH]c2nc3ccccc3c(=O)n2/c1=C/c1ccccc1	NCI-H23	30.3 µM (inactive)
CCOC(=O)c1nc2cc(F)c(F)cc2nc1NCc1cc(OC)c(OC)c(OC)c1	NCI-H23	> 100 µM (inactive)
CN(C)CCC[N+]1=Nc2cccc3cccc(c23)N1	NCI-H23	> 100 µM (inactive)

Param item: C=CCCCCCCCCCOC1C=CC(OC(C)=O)C(COC(C)=O)O1 (configuration not stated) ; param system: NCI-H23; output GI50: 32.1 µM (inactive)

Summary: O=C1C/C(Br)=C\c2ccccc2-c2ccccc21 , NCI-H23, GI50 = 3.16 µM (inactive)

Value sought: GI50, system NCI-H23, item O=C1CCSc2nc(-c3ccc4c(c3)OCO4)nn21 . Result: > 10 µM (inactive)

Entry COc1ccc(OC)c(-c2nc(O)c3ccccc3n2)c1 , tested on NCI-H23, has a reported GI50 of > 100 µM (inactive)

Readout GI50 for N#Cc1c(Cl)c2ccccc2n2c1nc1ccccc12 , test system NCI-H23, was 24.2 µM (inactive)

The recorded GI50 with NCI-H23 for C/C(=C1/CCCC2(N=NCC2c2ccccc2)C1=O)c1ccccc1 (configuration not stated) was 16.6 µM (inactive)

Kindly note: NCI-H23, COc1ccc(C(=O)Nc2ccccc2C#N)cc1 , GI50 value reported: > 100 µM (inactive)

Recorded GI50 for Cc1ccc(NC(=O)CCc2cc(C(C)(C)C)nc(S)n2)cc1C on NCI-H23 was > 100 µM (inactive)

Record CC(C)CC(NC(=O)C(C)(CI)Cc1ccccc1)C(=O)Nc1ccccc1 (configuration not stated) has NCI-H23 GI50 equal to > 100 µM (inactive)

Record COC1=CC(=O)C2=C(C1=O)[C@H]1CC[C@]3(C)C(=O)CC[C@H]3[C@@H]1CC2 ; system NCI-H23; GI50 = 27.1 µM (inactive)

Test item CSC(C1c2ccccc2N(c2ccc(C)cc2)c2[nH]c(=O)n(C)c(=O)c21)S(=O)(=O)c1ccc(C)cc1 (configuration not stated) ; NCI-H23; reported GI50 was > 100 µM (inactive)

GI50 of O=[N+]([O-])/C(C(Cl)=C(Cl)Cl)=C1\NCCS1 , assay on NCI-H23, is 31.5 µM (inactive)

GET /values?item= COC(=O)C1=C(O)C(C(=O)OC)[C@]2(O)[C@H](C(=O)OC)[C@H]1C[C@@H](c1c(Cl)cccc1Cl)[C@H]2C(=O)OC (some centres not stated) &system= NCI-H23 returns GI50: 2.02 µM (inactive)

Form field, GI50 with NCI-H23, item N=c1c2ccccc2sc2nc3ccccc3n12 : > 100 µM (inactive)
